Each recorded value in this set is attributed to PubChem BioAssay (NCI).

- System: A549 NSCLC
- Assay summary: NCI tumour cell line growth inhibition, 48 h; in the data active means GI50 below about 0.43 µM; inactive means the rest
Use one of these outcomes when replying: T for active, F for inactive

A selection of reference data follows.
| Compound | Discrete label |
| --- | --- |
| CC(C)=CCC/C(C)=C/CC/C(C)=C/CC/C=C(\C)CC/C=C(\C)CCC(=O)Nc1ccn(C2OC(CO)C(O)C2(F)F)c(=O)n1 (stereo not given) | T |
| CCn1c2ccccc2c2cc(/C=C(/C#N)C(N)=O)ccc21 | F |

### Prompt I would be grateful if you could indicate the recorded call for BrCc1ccc(CBr)cc1 .
### Response F

### Prompt I would be grateful if you could indicate the recorded call for CN1CCC(n2cnc(-c3ccc(F)cc3)c2-c2ccnc(N)n2)CC1 .
### Response F

### Prompt I would be grateful if you could indicate the recorded call for C[CH2][Pb]([CH2]C)([CH2]C)[O]C(=O)c1ccc2ccccc2n1 .
### Response F

### Prompt I would be grateful if you could indicate the recorded call for COc1ccc(/C=N/NC(=O)Cn2c(-c3ccc(S(C)(=O)=O)cc3)nc3cc(Cl)ccc32)cc1 .
### Response F

### Prompt I would be grateful if you could indicate the recorded call for COc1ccc(OC)c(Cn2cc3c(c2)-c2oncc2CC3)c1 .
### Response F

### Prompt I would be grateful if you could indicate the recorded call for CCCCn1c(=O)c2c(nc3n2CCCN3CCc2ccc(OCC(=O)NCCN(CC)CC)cc2)n(CCCC)c1=O .
### Response F

### Prompt I would be grateful if you could indicate the recorded call for O=C(Nc1cccc(Nc2ncc(Br)c(NCCc3cnc[nH]3)n2)c1)N1CCCC1 .
### Response F

### Prompt I would be grateful if you could indicate the recorded call for CC(=O)Oc1ccccc1C(=O)/C=C/c1cccc([N+](=O)[O-])c1 .
### Response F

====

- System: M14 melanoma
- Assay summary: NCI tumour cell line growth inhibition, 48 h; in the data active = GI50 below about 0.43 µM; inactive = the rest
Use one of these outcomes when replying: class 1 for active, class 0 for inactive

A selection of reference data follows.
| Molecule | Discrete label |
| --- | --- |
| N#CN1CC[C@H](C(=O)Nc2ncc(-c3ccncc3)s2)C1 | class 1 |
| Nc1ccc(-c2nc3ccccc3[nH]2)c2ccccc12 | class 0 |
| COc1cc2c(c(OC)c1OC)-c1ccc(SC)c(=O)cc1[C@@H](NC1OC(CO)C(O)C(O)C1O)CC2 (stereo not given in full) | class 1 |
| COC1O[C@@H]2C[C@H]3C(C)(C)CCC[C@]3(C)C3=CCCC1[C@@]32C (stereo not given in full) | class 0 |

Okay, next one:
### Prompt I would be grateful if you could indicate the recorded call for Cc1c(C2=C(c3cn(C)c4ccccc34)C(=O)NC2=O)c2ccccc2n1C .
### Response class 0

====

- System: UO-31 renal
- Assay summary: NCI tumour cell line growth inhibition, 48 h; in the data active means GI50 below about 0.43 µM; inactive means the rest
Use one of these outcomes when replying: active, inactive

A selection of reference data follows.
| Molecule | Assay system | Discrete label |
| --- | --- | --- |
| COc1ccc(C(=O)N2c3ccccc3Sc3ccccc32)c(OC)c1 | UO-31 renal | inactive |
| CC(C)=CCC/C(C)=C/CC/C(C)=C/CC/C=C(\C)CC/C=C(\C)CCC(=O)Nc1ccn(C2OC(CO)C(O)C2(F)F)c(=O)n1 (stereo not drawn) | UO-31 renal | active |
| CN1CCN(CC(O)COc2c(Br)c(Br)c(Br)c3c2OC(C)(C)C3)CC1 (stereo not drawn) | UO-31 renal | inactive |
| CC(C)(C)CN1CCn2c(nc3c(N)nccc32)S1 | UO-31 renal | inactive |
| CCN(Cc1ccc(Cl)s1)c1ccc(CO)c(Cl)c1 | UO-31 renal | inactive |

### Prompt I would be grateful if you could indicate the recorded call for CCCCCn1sc(=O)n(Cc2ccc(CNC(=O)OCc3ccc4cccc(O)c4n3)cc2)c1=O .
### Response inactive

### Prompt I would be grateful if you could indicate the recorded call for C[C@@H]1O[C@@H](OC[C@H]2O[C@@H](OCCc3ccc(O)c(O)c3)[C@H](O)[C@@H](O)[C@@H]2OC(=O)/C=C/c2ccc(O)c(O)c2)[C@H](O)[C@H](O)[C@H]1O .
### Response inactive

### Prompt I would be grateful if you could indicate the recorded call for Cn1cc(-c2nonc2-c2cn(C)c3ccccc23)c2ccccc21 .
### Response inactive

### Prompt I would be grateful if you could indicate the recorded call for O=C(Oc1cccnc1)c1ccsc1Nc1ccnc(C(F)(F)F)c1 .
### Response inactive

### Prompt I would be grateful if you could indicate the recorded call for O=c1[nH]cnc2c(C3NC(CO)C(O)C3O)c[nH]c12 (stereo not drawn) .
### Response inactive

### Prompt I would be grateful if you could indicate the recorded call for Cc1cccc(NC(=O)c2sc3nc4c(cc3c2N)CN(Cc2ccccc2)CC4)c1C .
### Response inactive

### Prompt I would be grateful if you could indicate the recorded call for CC1=CC(=O)C(O)C2(C)C1CC(O)C13COC4(C)C(OC(=O)C41)C(O)C23 (stereo not drawn) .
### Response inactive

### Prompt I would be grateful if you could indicate the recorded call for Cc1c(C2=C(c3cn(C)c4ccccc34)C(=O)NC2=O)c2ccccc2n1C .
### Response inactive

### Prompt I would be grateful if you could indicate the recorded call for C[C@@H]1O[C@@H](O[C@H]2CC[C@@]3(C)[C@H](CCC4[C@@H]3C(O)C[C@]3(C)[C@@H](c5ccc(=O)oc5)CC[C@]43O)C2)[C@H](O)[C@H](O)[C@H]1O (stereo partly drawn) .
### Response active

### Prompt I would be grateful if you could indicate the recorded call for O=C(Nc1cccc(Nc2ncc(Br)c(NCCc3cnc[nH]3)n2)c1)N1CCCC1 .
### Response inactive

### Prompt I would be grateful if you could indicate the recorded call for O=[N+]([O-])c1cc(S(=O)(=O)Oc2ccccc2)ccc1Cl .
### Response inactive

### Prompt I would be grateful if you could indicate the recorded call for COc1ccc2cc(-c3c(-c4ccncc4)nc(-c4ccc(S(C)=O)cc4)n3C)ccc2c1 (stereo not drawn) .
### Response inactive

### Prompt I would be grateful if you could indicate the recorded call for Nc1ccc(-c2nc3ccccc3[nH]2)c2ccccc12 .
### Response inactive
